Listing of entries alongside the reported one-nucleolus phenotype percent effect.
# Test system: MCF10A
# Assay Notes: one-nucleolus phenotype percent effect (relative to siNT 0% and siNOL11 100%); higher = more cells with one nucleolus (ribosome biogenesis inhibition)
# Assay Conditions: 20 nM; 72 h
Please state the figure in %; there is no need to write the unit.

Request: Identify the reported one-nucleolus phenotype percent effect for the following entry. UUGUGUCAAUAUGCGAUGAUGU [hsa-miR-592]
Result: 31.3

Request: For the sequence UAUGGAAAGACUUUGCCACUCU [hsa-miR-3688-3p] , give its reported one-nucleolus phenotype percent effect.
Result: -10.8

###

# System: MCF10A
# Assay Notes: percent viability (nuclei count relative to siNT); higher = more viable cells
# Assay Conditions: 20 nM; 72 h
Labelling field: enter satisfied if recorded percent viability is less than 40%. Enter not satisfied if it equals or exceeds that cut-off.

Before answering, review these 6 worked examples.
ACGGGUUAGGCUCUUGGGAGCU [hsa-miR-125b-1-3p]    not satisfied
GCUAUUUCACGACACCAGGGUU [hsa-miR-138-2-3p]    not satisfied
AUGUGCCUGAGGGAGUAAGACA [hsa-miR-550b-2-5p]    not satisfied
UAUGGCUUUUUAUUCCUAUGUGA [hsa-miR-135a-5p]    not satisfied
AGGGGGCGCAGUCACUGACGUG [hsa-miR-4697-5p]    satisfied
CUCGCCCUGUCUCCCGCUAG [hsa-miR-6726-3p]    not satisfied

Request: Consider UGAGGUAGUAGUUUGUGCUGUU [hsa-let-7i-5p] . Does its percent viability lie strictly below 40%?
Result: satisfied

Request: Please check: percent viability for UUGGGGUGGUCGGCCCUGGAG [hsa-miR-6737-5p] , strictly under 40% or not?
Result: satisfied

Request: Decide: percent viability of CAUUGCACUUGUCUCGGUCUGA [hsa-miR-25-3p] strictly below 40%?
Result: not satisfied

Request: In plain terms, does UCCUACGCUGCUCUCUCACUCC [hsa-miR-6761-3p] come in under 40% for percent viability?
Result: not satisfied

Request: Lab note: confirm whether the reported percent viability for this sequence is below 40%, equality not counting. sequence: GUUCCACACUGACACUGCAGAAGU [hsa-miR-3692-3p]
Result: not satisfied
